Assayed system: T1, human ICOS (human, UniProt Q9Y6W8 21-199)
T1 construct: whole, on cells
T1 sequence (looked up): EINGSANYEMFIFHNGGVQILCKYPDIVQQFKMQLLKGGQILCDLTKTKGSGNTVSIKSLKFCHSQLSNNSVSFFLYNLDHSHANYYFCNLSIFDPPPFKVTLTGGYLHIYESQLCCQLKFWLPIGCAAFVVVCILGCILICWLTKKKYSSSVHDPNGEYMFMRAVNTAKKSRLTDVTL
Assay explanation: flow cytometry, cells with human ICOS; protein from CHO
# MFI (ΔWT) listing for each entry below
Param answer (str): number followed by unit.

Examples with their reported MFI (ΔWT) follow.
Binder | MFI (ΔWT)
ICOSL ECD Truncation #5 with N52H/N57Y/Q100R/C198R (Fc fusion, not shown: a dimerising Fc or GST, Made in CHO cells) DTQEKEVRAMVGSDVELSCACPEGSRFDLNDVYVYWQTSESKTVVTYHIPQHSSLEYVDSRYRNRALMSPAGMLRGDFSLRLFNVTPQDEQKFHCLVLSRSLGFQEVLSVEVTLHVAANFSVPVVSAPHSPSQDELTFTCTSINGYPRPNVYWINKTDNSLLDQALQNDTVFLNMRGLYDVVSVLRIARTPSVNIGCRIENVLLQQ | 1.1 fold vs WT
ICOSL ECD Truncation #6 with N52H/N57Y/Q100R/C198R (Fc fusion, not shown: a dimerising Fc or GST, Made in CHO cells) DTQEKEVRAMVGSDVELSCACPEGSRFDLNDVYVYWQTSESKTVVTYHIPQHSSLEYVDSRYRNRALMSPAGMLRGDFSLRLFNVTPQDEQKFHCLVLSRSLGFQEVLSVEVTLHVAANFSVPVVSAPHSPSQDELTFTCTSINGYPRPNVYWINKTDNSLLDQALQNDTVFLNMRGLYDVVSVLRIARTPSVNIGCRIENVLL | 0.9 fold vs WT
ICOSL ECD Truncation #7 with N52H/N57Y/Q100R/C198R and E90K/E111G (Fc fusion, not shown: a dimerising Fc or GST, Made in CHO cells) DTQEKEVRAMVGSDVELSCACPEGSRFDLNDVYVYWQTSESKTVVTYHIPQHSSLEYVDSRYRNRALMSPAGMLRGDFSLRLFNVTPQDKQKFHCLVLSRSLGFQEVLSVGVTLHVAANFSVPVVSAPHSPSQDELTFTCTSINGYPRPNVYWINKTDNSLLDQALQNDTVFLNMRGLYDVVSVLRIARTPSVNIGCRIEN | 0.5 fold vs WT

Task: Please give the measured MFI (ΔWT) for this binder: ICOSL IgV with N52H/N57Y/Q100R and H48R/S54P, Fc fusion (Fc fusion, Made in CHO cells. '554P' is read as S54P; also called ICOSL IgV with N52H/N57Y/Q100R and H48R/554P) DTQEKEVRAMVGSDVELSCACPEGSRFDLNDVYVYWQTSESKTVVTYRIPQHSPLEYVDSRYRNRALMSPAGMLRGDFSLRLFNVTPQDEQKFHCLVLSRSLGFQEVLSVEVTLHVAANFSVGGGGSGGGGSEPKSSDKTHTCPPCPAPEAEGAPSVFLFPPKPKDTLMISRTPEVTCVVVDVSHEDPEVKFNWYVDGVEVHNAKTKPREEQYNSTYRVVSVLTVLHQDWLNGKEYKCKVSNKALPAPIEKTISKAKGQPREPQVYTLPPSREEMTKNQVSLTCLVKGFYPSDIAVEWESNGQPENNYKTTPPVLDSDGSFFLYSKLTVDKSRWQQGNVFSCSVMHEALHNHYTQKSLSLSPG
Result: 1.4 fold vs WT
